Target: PfHsp20c (Plasmodium falciparum)
Construct: full-length, residues 1–231, N-terminal 6xHis
Sequence (Q8I5T9 entry or part of it): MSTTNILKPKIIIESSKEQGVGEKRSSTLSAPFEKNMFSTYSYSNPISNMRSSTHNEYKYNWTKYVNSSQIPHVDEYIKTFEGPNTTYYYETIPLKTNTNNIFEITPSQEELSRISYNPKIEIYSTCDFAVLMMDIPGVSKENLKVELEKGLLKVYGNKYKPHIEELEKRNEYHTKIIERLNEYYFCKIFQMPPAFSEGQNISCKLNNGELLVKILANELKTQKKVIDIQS
Experiment: inhibition of chaperone activity (suppression of heat-induced MDH/CS aggregation); CD, DSF and DLS shifts also measured
reported.property: pIC50
Remember, pIC50 is on a log scale: it is -log10 of the molar concentration.

Entry under test: O=c1c(O)c(-c2ccc(O)c(O)c2)oc2cc(O)cc(O)c12 [quercetin, 3,3′,4′,5,7-pentahydroxyflavone] . Its pIC50 was 6.96
